Cited source for all entries: ChEMBL document CHEMBL1140294

Target: ATP-dependent translocase ABCB1 (Homo sapiens)
Sequence (P08183 whole entry): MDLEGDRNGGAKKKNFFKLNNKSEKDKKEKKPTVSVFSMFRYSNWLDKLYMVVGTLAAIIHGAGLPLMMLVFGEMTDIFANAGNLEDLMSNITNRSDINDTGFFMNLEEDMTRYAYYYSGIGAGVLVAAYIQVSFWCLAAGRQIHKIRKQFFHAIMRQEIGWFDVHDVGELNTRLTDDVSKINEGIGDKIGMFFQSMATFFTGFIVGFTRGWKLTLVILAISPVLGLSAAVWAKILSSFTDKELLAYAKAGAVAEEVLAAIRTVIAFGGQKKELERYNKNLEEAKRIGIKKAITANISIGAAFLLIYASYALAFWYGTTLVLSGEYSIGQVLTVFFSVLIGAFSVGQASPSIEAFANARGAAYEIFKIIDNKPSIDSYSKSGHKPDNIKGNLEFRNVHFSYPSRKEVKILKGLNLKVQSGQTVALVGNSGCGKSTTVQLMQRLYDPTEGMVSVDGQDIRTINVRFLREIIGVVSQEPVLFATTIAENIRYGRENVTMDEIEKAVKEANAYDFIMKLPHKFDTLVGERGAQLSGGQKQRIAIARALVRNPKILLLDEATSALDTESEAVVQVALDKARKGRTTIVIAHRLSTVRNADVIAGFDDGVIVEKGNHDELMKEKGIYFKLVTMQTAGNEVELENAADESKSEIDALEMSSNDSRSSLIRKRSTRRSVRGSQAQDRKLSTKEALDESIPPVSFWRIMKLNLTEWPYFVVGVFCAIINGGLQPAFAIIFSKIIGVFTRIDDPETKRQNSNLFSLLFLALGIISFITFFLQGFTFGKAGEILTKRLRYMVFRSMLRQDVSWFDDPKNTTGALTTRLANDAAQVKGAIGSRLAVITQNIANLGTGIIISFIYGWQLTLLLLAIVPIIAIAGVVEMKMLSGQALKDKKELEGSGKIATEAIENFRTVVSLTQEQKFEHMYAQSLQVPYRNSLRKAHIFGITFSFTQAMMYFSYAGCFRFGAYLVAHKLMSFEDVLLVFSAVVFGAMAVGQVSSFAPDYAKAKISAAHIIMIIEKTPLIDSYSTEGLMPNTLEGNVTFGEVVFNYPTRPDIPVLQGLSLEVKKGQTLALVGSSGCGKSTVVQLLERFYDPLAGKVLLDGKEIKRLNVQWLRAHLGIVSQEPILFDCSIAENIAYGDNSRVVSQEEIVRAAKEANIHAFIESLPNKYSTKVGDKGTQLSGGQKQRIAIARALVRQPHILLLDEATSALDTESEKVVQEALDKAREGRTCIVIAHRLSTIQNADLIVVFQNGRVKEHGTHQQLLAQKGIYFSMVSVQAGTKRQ
Experiment: Reversal of P-gp-mediated multidrug resistance in doxorubicin-resistant human K562 cells assessed as increase in nuclear pirarubicin concentration
Assay type: cell-based
measure: Alpha max

- molecule: "COc1cc(/C=C/C(=O)OCCCN2CCN(CCCOC(=O)c3cc(OC)c(OC)c(OC)c3)CC2)cc(OC)c1OC"
  experimental.target: "ATP-dependent translocase ABCB1 (Homo sapiens)"
  measurement: 0.61
- molecule: "COc1cc(/C=C/C(=O)OCCCN(C)CCN(C)CCCOC(=O)c2cc(OC)c(OC)c(OC)c2)cc(OC)c1OC"
  experimental.target: "ATP-dependent translocase ABCB1 (Homo sapiens)"
  measurement: 0.78
- molecule: "COc1cc(/C=C/C(=O)OCCCN2CCN(CCCOC(=O)C3c4ccccc4-c4ccccc43)CC2)cc(OC)c1OC"
  experimental.target: "ATP-dependent translocase ABCB1 (Homo sapiens)"
  measurement: 0.7
- molecule: "COc1ccc(C(C#N)(CCC(=O)OCCCN2CCN(CCCOC(=O)c3c4ccccc4cc4ccccc34)CC2)C(C)C)cc1OC (stereo not drawn)"
  experimental.target: "ATP-dependent translocase ABCB1 (Homo sapiens)"
  measurement: 0.65
- molecule: "COc1cc(/C=C/C(=O)OCCCNCCCOC(=O)c2cc(OC)c(OC)c(OC)c2)cc(OC)c1OC"
  experimental.target: "ATP-dependent translocase ABCB1 (Homo sapiens)"
  measurement: 1
- molecule: "COc1cc(/C=C/C(=O)OCCOCCN(C)CCOCCOC(=O)c2cc(OC)c(OC)c(OC)c2)cc(OC)c1OC"
  experimental.target: "ATP-dependent translocase ABCB1 (Homo sapiens)"
  measurement: 0.9
- molecule: "COc1cc(/C=C/C(=O)OCCN(C)CCOC(=O)C2c3ccccc3-c3ccccc32)cc(OC)c1OC"
  experimental.target: "ATP-dependent translocase ABCB1 (Homo sapiens)"
  measurement: 0.7
- molecule: "COc1cc(/C=C/C(=O)OCCCN2CCN(CCCOC(=O)/C=C/c3cc(OC)c(OC)c(OC)c3)CC2)cc(OC)c1OC"
  experimental.target: "ATP-dependent translocase ABCB1 (Homo sapiens)"
  measurement: 0.8

====

Target: ATP-dependent translocase ABCB1 (Homo sapiens)
Test: Reversal of P-gp-mediated multidrug resistance in doxorubicin-resistant human K562 cells assessed as drug concentration causing half-maximal increase in nuclear pirarubicin concentration
Details: read-out: Activity
Attribute: EC50

- entry.smiles: "COc1cc(/C=C/C(=O)OCCCN(C)CCN(C)CCCOC(=O)c2cc(OC)c(OC)c(OC)c2)cc(OC)c1OC"
  result.unit: "nM"
  EC50: 1300
- entry.smiles: "COc1cc(/C=C/C(=O)OCCCCCN(C)CCCCCOC(=O)c2cc(OC)c(OC)c(OC)c2)cc(OC)c1OC"
  result.unit: "nM"
  EC50: 800
- entry.smiles: "COc1cc(/C=C/C(=O)OCCOCCN(C)CCOCCOC(=O)c2c3ccccc3cc3ccccc23)cc(OC)c1OC"
  result.unit: "nM"
  EC50: 170
- entry.smiles: "COc1cc(/C=C/C(=O)OCCCCCN(C)CCCCCOC(=O)c2c3ccccc3cc3ccccc23)cc(OC)c1OC"
  result.unit: "nM"
  EC50: 100

====

Target: ATP-dependent translocase ABCB1 (Homo sapiens)
Assay: Reversal of P-gp-mediated multidrug resistance in doxorubicin-resistant human K562 cells assessed as increase in nuclear pirarubicin concentration
Format: cell-based
measure: Alpha max

- molecule: "COc1ccc(C(C#N)(CCCN(C)c2c3ccccc3cc3ccccc23)C(C)C)cc1OC (centres undefined)"
  measurement: 0.7
- molecule: "COc1cc(/C=C/C(=O)OCCCCCN(C)CCCCCOC(=O)c2cc(OC)c(OC)c(OC)c2)cc(OC)c1OC"
  measurement: 0.84
- molecule: "COc1cc(/C=C/C(=O)OCCOCCN(C)CCOCCOC(=O)c2c3ccccc3cc3ccccc23)cc(OC)c1OC"
  measurement: 0.84
- molecule: "COc1cc(/C=C/C(=O)OCCCCCN(C)CCCCCOC(=O)c2c3ccccc3cc3ccccc23)cc(OC)c1OC"
  measurement: 0.8
